- measured-on: Nuclear receptor ROR-gamma (Homo sapiens, UniProt P51449)
- Sequence (P51449 whole entry, the tested form may be a part): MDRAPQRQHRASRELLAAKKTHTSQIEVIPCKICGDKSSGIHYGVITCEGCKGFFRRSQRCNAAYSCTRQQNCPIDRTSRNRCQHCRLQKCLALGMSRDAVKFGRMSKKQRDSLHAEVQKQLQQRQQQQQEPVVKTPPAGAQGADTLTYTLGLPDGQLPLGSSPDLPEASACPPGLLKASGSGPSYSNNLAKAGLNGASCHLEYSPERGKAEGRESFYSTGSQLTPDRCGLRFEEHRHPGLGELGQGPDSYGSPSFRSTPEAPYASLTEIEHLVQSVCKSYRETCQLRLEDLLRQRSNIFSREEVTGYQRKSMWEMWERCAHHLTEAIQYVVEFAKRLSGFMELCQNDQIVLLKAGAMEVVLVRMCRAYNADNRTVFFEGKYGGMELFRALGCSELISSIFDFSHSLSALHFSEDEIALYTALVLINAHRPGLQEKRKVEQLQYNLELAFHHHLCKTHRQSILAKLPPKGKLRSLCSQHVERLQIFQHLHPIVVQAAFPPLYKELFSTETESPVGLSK
- method-description: Agonist activity at human RORgammat LBD expressed in HEK293T cells assessed increase in Gal4 reporter gene transcription measured after 16 to 20 hrs by luciferase reporter gene assay
- Format: cell-based
assay-readout: EC50 (nM)

>  <smiles-str>
CCS(=O)(=O)c1ccc(CNC(=O)c2ccc(CCN3CCOc4ccc(OC(C)C)cc43)cc2)nc1

>  <assay-result>
135

$$$$

a = CC(C)Oc1ccc2c(c1)N(CCc1ccc(C(=O)NCc3ccc(S(C)(=O)=O)cn3)cc1)CCO2
b = CCS(=O)(=O)c1ccc(CNC(=O)c2ccc(CCN3CCCc4ccc(CC(C)C)cc43)cc2)nc1
Lower value for measured EC50? Options: a , b Answer by stating the label of the chosen item. a
